# credit: patent US20210130436A1

target_entity: T1, human CTLA4 (full-length, expressed on CHO cells) (human, UniProt P16410 36-223)
T1 construct: also called huCTLA4
assay_procedure: flow cytometry, CHO cells expressing huCTLA4, PE anti-human Fc
recorded_endpoint: MFI at 33.3 nM (MFI)
One number for each entry, in MFI.

binder	MFI at 33.3 nM [MFI]
variant CD80 IgV-Fc A26E/Q33R/E35D/M47L/L85Q/K86E (Fc fusion, not shown: a dimerising Fc or GST, Fc fusions are described in general as dimers) VIHVTKEVKEVATLSCGHNVSVEELEQTRIYWRKDKKMVLTMMSGDLNIWPEYKNRTIFDITNNLSIVILALRPSDEGTYECVVQEYEKDAFKREHLAEVTLSVKAD	1280
variant CD80 IgV-Fc A26E/Q33L/E35D/M47L/L85Q (Fc fusion, not shown: a dimerising Fc or GST) VIHVTKEVKEVATLSCGHNVSVEELEQTRIYWLKDKKMVLTMMSGDLNIWPEYKNRTIFDITNNLSIVILALRPSDEGTYECVVQKYEKDAFKREHLAEVTLSVKAD	1170
variant CD80 IgV-Fc E7D/E35D/M47I/L97Q (Fc fusion, not shown: a dimerising Fc or GST) VIHVTKDVKEVATLSCGHNVSVEELAQTRIYWQKDKKMVLTMMSGDINIWPEYKNRTIFDITNNLSIVILALRPSDEGTYECVVLKYEKDAFKREHQAEVTLSVKAD	271000

stdin: Need MFI at 33.3 nM of variant CD80 IgV-Fc H18Y/Q33L/E35D/M47I (Fc fusion, not shown: a dimerising Fc or GST) VIHVTKEVKEVATLSCGYNVSVEELAQTRIYWLKDKKMVLTMMSGDINIWPEYKNRTIFDITNNLSIVILALRPSDEGTYECVVLKYEKDAFKREHLAEVTLSVKAD , thanks.
stdout: 5540
